Test system: BJ
method summary: Cytotoxicity against human BJ cells after 48 hrs by CellTiter 96 AQueous one solution cell proliferation assay
Type: cell-based
property: pIC50
Kindly note that pIC50 refers to -log10 of the concentration in mol/L and answer with the value alone.

Examples with answers:
{"columns": ["compound", "pIC50"],
 "data": [
  ["COc1ccc(C(=O)/C=C/c2ccccc2)c(O)c1", 3.62],
  ["CC(=O)Oc1ccc(C(=O)/C=C/c2ccccc2)c(O)c1", 4.67]
]}

The compound `COc1cc([C@@H]2c3cc4c(cc3[C@H](O)[C@H]3COC(=O)[C@H]23)OCO4)cc(OC)c1OC` on BJ: pIC50 was 5.30

The compound `CCCOc1ccc(C(=O)/C=C/c2ccccc2)c(O)c1` on BJ: pIC50 was 4.80

The compound O=C(/C=C/c1ccccc1)c1ccc(O)cc1O [2',4'-DIHYDROXYCHALCONE] on BJ: pIC50 was 3.58

The compound `CCOc1ccc(C(=O)/C=C/c2ccccc2)c(O)c1` on BJ: pIC50 was 3.68

Where these numbers come from: ChEMBL document CHEMBL4308899
